Values from the supplement of paper PMC9170038

tested on: MS2 coat protein; assay: apparent KD of MS2 coat protein; designed switch direction (-1 OFF switch, 1 ON switch): 1; higher = weaker reporter binding; details: Eterna round: R95; input ligand: microRNA oligo, concentration not stated
In this section, each of the sequences is paired with its reported apparent KD of MS2 coat protein.
measured metric: apparent KD of MS2 coat protein (nM)

>>> experimental_result("AGUCCAGCGAAAGCUGGACAAAAGCAUGUACAUGAGGAUCACCCAUGUUUAUGUACAAGCUUUUUGCUCGUUUUAAA [JL mod - D95 - 16] (puzzle: Sensor for hsa-mir-208a)")
13.1
>>> experimental_result("GAGAAUCUAUCUCAGGAUAUCAUGUCAAAGACAUGAGGAUCACCCAUGUACCAGGAAACUGGUUAUGAGAAGGGAGAUAGAUUCG [Mat - Same State 2 - Mod - D36] (puzzle: Same State 2)")
111
>>> experimental_result("UCUUGGUUUUUGCUCGUUUUUUGUGUUGAACAUGAGGAUCACCCAUGUAUUGUACGGUCCAAUUUAGUGGUAAUCCG [JMF 66] (puzzle: Sensor for hsa-mir-208a)")
29
>>> experimental_result("GGUCCAGCCUGAGCUGGACAAAAGCAUGUACAUGAGGAUCACCCAUGUUCAUGUACAAGCUUUUUGCUCGUCUUGCA [salish99_208a_r3_110x] (puzzle: Sensor for hsa-mir-208a)")
15.5
>>> experimental_result("AAAAGACAUGAGGAUCACCCAUGUAUGAAAAGUACAGGAUAUCACGAGCUAAAGUGCGAGUGAGAAGGGUGAAAAU [Araceesge] (puzzle: Same State 1)")
41.9

----------
Measured apparent KD of MS2 coat protein of individual entries
tested on: MS2 coat protein; assay: apparent KD of MS2 coat protein; designed switch direction (-1 OFF switch, 1 ON switch): 1; higher = weaker reporter binding; details: input ligand: microRNA oligo, concentration not stated
measured metric: apparent KD of MS2 coat protein (nM)

>>> experimental_result("AAUUGUUUCUGAGGAUAUCAGUAGUAUGCCAAUUGAGAAGGCAGUACAUGAGGAUCACCCAUGUUGUGGUUUGAUAGAAUGAUA [JR_SSNG1_Sub002] (Eterna round: R96, puzzle: Same State NG 1)")
143
>>> experimental_result("UGUUAUUUGACAGGAUAUUGAUUGUAAAGUUUUUACAUGAGGAUCACCCAUGUUGUUCAUUCGAACAAGAAGGGUCAAGUUUUU [JR_SSNG2_Sub019] (Eterna round: R96, puzzle: Same State NG 2)")
48.2
>>> experimental_result("AGUUGUAAUACAGGAUAUAUAUUAUUUUUAUUUAUAGAAGGGUAAUCACAUGAGGAUCACCCAUGUAUAUACGAGGAAGAAGAG [JMF's solution 2] (Eterna round: R96, puzzle: Same State NG 1)")
194
>>> experimental_result("AUACUCAUGUAAGGAUAUGCAGCCGAAACGGCUGCAGAAGGUACUAUAAUACAUGAGGAUCACCCAUGUCAAAAUUAUUUAGUU [Mat - Same State NG 1 - JL mod - D99] (Eterna round: R96, puzzle: Same State NG 1)")
21.9

----------
system: MS2 coat protein; assay: apparent KD of MS2 coat protein; designed switch direction (-1 OFF switch, 1 ON switch): -1; higher = weaker reporter binding; settings: input ligand: FMN 200 uM
Recorded measurements of apparent KD of MS2 coat protein, one per entry
measured metric: apparent KD of MS2 coat protein

>>> experimental_result("AAUUAGUAUGUGAGGAUAUUGAUGUAAUGACGGUUUAAGAAGGCACAUGAGGAUCACCCAUGUAGGUGCUCACG [JR_BMEx4_Sub007] (Eterna round: R97, puzzle: Brourd's mod of Exclusion 4)")
"380 nM"
>>> experimental_result("GAAAACGCAAAGGAUAUUACAGAUCAAAGCUGCUGAGAAGGUUGCACAUGAGGAUCACCCAUGUGGUCUUUCAA [Mod of Quesina 18 - Jieux - Exclusion 6] (Eterna round: R97, puzzle: Exclusion 6)")
"213 nM"
>>> experimental_result("CAGUACUGAGGAUAUACAUGAGGAUCACCCAUGUGGUUUAGUGCACGCGUACGUGUACGUAGAAGGCAGUACUG [JL 3.27 m8] (Eterna round: R97, puzzle: Exclusion 3)")
"78.3 nM"
